For each of the molecules below, state its composite z-score.
Experiment: probe aNog binding to arrayed compounds – biochemical, biotinylated probe, 635/667 nm fluorescence, primary screen (AID 1115);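 further: probe is biotinylated aNog protein used at 0.15 µg/mL for 1 h at 4 C; z-score combines 667 nm fluorescence of each spot with its signal to noise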
Details: small-molecule microarray, higher = more signal
Lab note: record just the number, no unit beside it.

*Q* Sample Cc1ccc(S[C@]2(C(=O)NC(C)C)CC(=O)N(C3CCCCC3)[C@@H]2c2ccc(CO)cc2I)cc1 — what was its composite z-score?
*A* 0.313

*Q* Sample C[N+](C)(C)CCCCNC(=O)[C@H]1C[C@H]2C(=O)N[C@@H](Cc3ccccc3)C(=O)N2[C@H]1c1cccc(OCCO)c1 — what was its composite z-score?
*A* -0.456

*Q* Sample CC(C)N1C(=O)C[C@@](C(=O)NCCN2CCOCC2)(c2ccc([N+](=O)[O-])cc2)[C@H]1c1ccc(CO)cc1 — what was its composite z-score?
*A* -0.478

*Q* Sample CN1C(=O)C2C(C1=O)C1C=C(c3ccc(CO)cc3)C2C(C2CC2)N1C (stereo not drawn) — what was its composite z-score?
*A* -0.0606

*Q* Sample C[C@@H]1ON(c2ccc(I)cc2)[C@H](c2cccc(NC(=O)OCC3c4ccccc4-c4ccccc43)c2)[C@H]1C(=O)N1C(=O)OC[C@H]1Cc1ccccc1 — what was its composite z-score?
*A* -0.285

*Q* Sample OCCCC1=CC(c2ccc(CN3CCCC3)cc2)N(Cc2cccc(OC(F)(F)F)c2)CC1 (stereo not drawn) — what was its composite z-score?
*A* -0.0898

*Q* Sample CCCC[C@H]1C[C@@H]1[C@@H]1N(C(C)=O)[C@H](c2cccc(OC)c2)CC12CC2 — what was its composite z-score?
*A* -0.643

*Q* Sample CC(C)(C)N1CC=CC23O[C@@H]4/C=C\CCCOC(=O)C4[C@H]2C(=O)N(CCCO)[C@@H]3C1=O (stereo partly drawn) — what was its composite z-score?
*A* 0.185
